# assay-target: Casein kinase I isoform alpha (Homo sapiens, UniProt P48729)
# Sequence (P48729 whole entry, canonical isoform): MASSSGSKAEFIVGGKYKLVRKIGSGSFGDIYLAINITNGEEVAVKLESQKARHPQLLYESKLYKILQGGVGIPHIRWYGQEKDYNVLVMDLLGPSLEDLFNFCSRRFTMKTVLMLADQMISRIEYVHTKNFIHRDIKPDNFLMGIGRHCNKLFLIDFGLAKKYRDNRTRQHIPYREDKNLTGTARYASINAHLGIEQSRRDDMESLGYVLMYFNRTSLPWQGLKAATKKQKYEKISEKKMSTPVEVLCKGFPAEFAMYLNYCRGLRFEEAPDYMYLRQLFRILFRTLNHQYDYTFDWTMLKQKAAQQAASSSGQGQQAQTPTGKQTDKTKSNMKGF
# assay: CSNK1A1 Assay 2
# Source text: […]
Give measured IC50 for each item. Keep answers brief.
Respond numerically; units are nM and should not be typed.

Ask: Which IC50 value is on record for CC(C(=O)Nc1cc(-c2[nH]c3c(c2Nc2ccccc2)C(=O)N(CC(F)(F)F)CC3)ccn1)c1ccc(F)cc1 (stereo not drawn) ?
Reply: 22.6

Ask: Repeat with Cc1ccccc1CC(=O)Nc1cc(-c2[nH]c3c(c2Nc2ccccc2)C(=O)N(C)CC3)ccn1
Reply: 4.79

Ask: // query: Cc1c(F)cccc1Nc1c(-c2ccnc(NC(=O)Cc3ccc(F)cc3)c2)[nH]c2c1C(=O)NC(C)(C)C2
Reply: 9.38
